IC50 KA, receptor binding for assorted molecules
TARGET OR SYSTEM: kainic acid (KA) receptor
EXPERIMENT SUMMARY: Radioligand binding: tritiated kainate binding with washed synaptosomal membranes from the rat forebrain
APPLIED CONDITIONS: Table I; racemic; tritiated kainate 5 nM, pH 7.4; mean ± standard error (n = 3), values marked ^c single experiment

- MOLECULE: "O=C(O)[C@@H]1C[C@H]2C[C@@H](CCCc3nnn[nH]3)CC[C@H]2CN1 (racemic)"
  MEASUREMENT QUALIFIER: "="
  IC50 KA, receptor binding (µM): 18.65
- MOLECULE: "O=C(O)[C@@H]1C[C@H]2C[C@H](CSc3nnn[nH]3)CC[C@H]2CN1 (racemic)"
  MEASUREMENT QUALIFIER: "="
  IC50 KA, receptor binding (µM): 37.3
- MOLECULE: "O=C(O)[C@@H]1C[C@H]2C[C@H](CCc3nn[nH]n3)CC[C@H]2CN1 (relative stereo)"
  MEASUREMENT QUALIFIER: "="
  IC50 KA, receptor binding (µM): 180.0
- MOLECULE: "O=C(CC[C@H]1CC[C@H]2CN[C@H](C(=O)O)C[C@H]2C1)Nc1nn[nH]n1 (relative stereo)"
  MEASUREMENT QUALIFIER: ">"
  IC50 KA, receptor binding (µM): 100

----------
TARGET OR SYSTEM: NMDA receptor
EXPERIMENT SUMMARY: Radioligand binding: displacement of [^3 H]CGS19755 from synaptosomal membranes of rat forebrain (NMDA receptor affinity)
APPLIED CONDITIONS: Table II; enantiopure; [^3 H]CGS19755 10 nM; mean ± standard error (n = 3), values marked ^c single experiment
Protocol: The formula I compounds were tested for their ability to inhibit NMDA, AMPA, and kainic acid receptor binding to rat membranes in a radioligand binding assay using [^3 H]CGS19755, [^3 H]AMPA, and [^3 H]KA. For all radioligand binding assays, male Sprague-Dawley rats were used. […] Non-specific binding was determined using 10 μM L-glutamate. […] Non-specific binding was determined using 100 μM non-labeled kainate. […] Non-specific binding was determined with 10 μM non-labeled AMPA. […]
Measured IC50, listed per entry for reference.

- COMPOUND: "O=C(O)[C@H]1C[C@@H]2C[C@H](CSc3nn[nH]n3)CC[C@@H]2CN1 [Compound 24]"
  UNITS LABEL: "µM"
  MEASUREMENT QUALIFIER: ">"
  IC50: 10
- COMPOUND: "O=C(O)[C@@H]1C[C@H]2C[C@@H](CS(=O)(=O)c3nc[nH]n3)CC[C@H]2CN1 [Compound 26]"
  UNITS LABEL: "µM"
  MEASUREMENT QUALIFIER: ">"
  IC50: 100
- COMPOUND: "O=C(O)[C@@H]1C[C@H]2C[C@H](CSc3nn[nH]n3)CC[C@H]2CN1 [Compound 25]"
  UNITS LABEL: "µM"
  MEASUREMENT QUALIFIER: ">"
  IC50: 100
- COMPOUND: "O=C(O)[C@H]1C[C@@H]2C[C@H](CS(=O)(=O)c3nc[nH]n3)CC[C@@H]2CN1 [Compound 27]"
  UNITS LABEL: "µM"
  MEASUREMENT QUALIFIER: "="
  IC50: 60.9
- COMPOUND: "O=C(O)[C@@H]1C[C@H]2C[C@@H](CSc3nn[nH]n3)CC[C@H]2CN1 [Compound 23]"
  UNITS LABEL: "µM"
  MEASUREMENT QUALIFIER: "="
  IC50: 16.3
- COMPOUND: "O=C(O)[C@@H]1C[C@H]2C[C@@H](CCc3nn[nH]n3)CC[C@H]2CN1 [Compound 21]"
  UNITS LABEL: "µM"
  MEASUREMENT QUALIFIER: "="
  IC50: 12.1

Cited source for all entries: patent US5399696A
